Sourced from patent US8895585B2

System: THP-1 cells
run-description: TNFα generation assay
Assay type: cell-based, human
condition-details: Homo sapiens, THP-1, THP-1 cells; Table 22; read-out: IC50 in TNFα generation assay
measure: IC50

Example results:
molecule	measure	measurement
NC(=O)c1cc(F)c(N[C@@H]2CCCC[C@@H]2N)nc1Nc1cncc(C2CC2)c1 [Example 006-167]	IC50	< 65 nM
NC(=O)c1cc(F)c(N[C@@H]2CCCC[C@@H]2N)nc1Nc1cnc2c(c1)OCCO2 (relative stereo) [Example 004-161]	IC50	130 to 200 nM
CCc1nn(CC)c2ccc(Nc3nc(N[C@H](CC)[C@H](C)N)c(F)cc3C(N)=O)cc12 [Example 006-541]	IC50	130 to 200 nM
COc1cc(Nc2nc(N[C@@H]3CCCC[C@@H]3N)c(F)cc2C(N)=O)cc(OC)n1 [Example 006-114]	IC50	65 to 130 nM
CC[C@H](N)[C@@H](C)Nc1nc(Nc2ccc3c(cnn3CC)c2)c(C(N)=O)cc1F [Example 006-362]	IC50	130 to 200 nM
CCc1nn(C)c2ccc(Nc3nc(N[C@@H]4CCCC[C@@H]4N)c(F)cc3C(N)=O)cc12 [Example 006-451]	IC50	< 65 nM

# input for lookup
Qu. Can you look up the measured IC50 of CCn1nc(C2CC2)c2cc(Nc3nc(N[C@H](CC(C)C)[C@H](C)N)c(F)cc3C(N)=O)ccc21 [Example 006-550] for me?
Ans. 130 to 200 nM
